test system: lncap (prostate cancer cells); assay: MTT cancer cell growth inhibition; type: cell-based; conditions: Homo sapiens, LNCaP, 72 h, lncap cells, MTT, 72 hours incubation; read-out: GI50 lnca
QUANTITY_NAME: GI50 (nM)

C/C=C1\NC(=O)c2cc(SC)cc(n2)CNC(=O)C[C@@H](/C=C/CCS)OC(=O)[C@H](CC)NC1=O: 50

I: C/C=C1\NC(=O)c2nc(ccc2SC)CNC(=O)C[C@@H](/C=C/CCSC=O)OC(=O)[C@H](C(C)C)NC1=O
II: C/C=C1\NC(=O)c2cccc(n2)CNC(=O)C[C@@H](/C=C/CCSC(=O)CCCCCCC)OC(=O)[C@@H](C)NC1=O
*Q* Task for the reader: decide whether I or II has the larger GI50. Identify your pick by its label.
*A* II
